# ASSAYED SYSTEM: Rap guanine nucleotide exchange factor 4 (Homo sapiens) (UniProt Q8WZA2)
# Sequence (Q8WZA2 whole entry, looked up): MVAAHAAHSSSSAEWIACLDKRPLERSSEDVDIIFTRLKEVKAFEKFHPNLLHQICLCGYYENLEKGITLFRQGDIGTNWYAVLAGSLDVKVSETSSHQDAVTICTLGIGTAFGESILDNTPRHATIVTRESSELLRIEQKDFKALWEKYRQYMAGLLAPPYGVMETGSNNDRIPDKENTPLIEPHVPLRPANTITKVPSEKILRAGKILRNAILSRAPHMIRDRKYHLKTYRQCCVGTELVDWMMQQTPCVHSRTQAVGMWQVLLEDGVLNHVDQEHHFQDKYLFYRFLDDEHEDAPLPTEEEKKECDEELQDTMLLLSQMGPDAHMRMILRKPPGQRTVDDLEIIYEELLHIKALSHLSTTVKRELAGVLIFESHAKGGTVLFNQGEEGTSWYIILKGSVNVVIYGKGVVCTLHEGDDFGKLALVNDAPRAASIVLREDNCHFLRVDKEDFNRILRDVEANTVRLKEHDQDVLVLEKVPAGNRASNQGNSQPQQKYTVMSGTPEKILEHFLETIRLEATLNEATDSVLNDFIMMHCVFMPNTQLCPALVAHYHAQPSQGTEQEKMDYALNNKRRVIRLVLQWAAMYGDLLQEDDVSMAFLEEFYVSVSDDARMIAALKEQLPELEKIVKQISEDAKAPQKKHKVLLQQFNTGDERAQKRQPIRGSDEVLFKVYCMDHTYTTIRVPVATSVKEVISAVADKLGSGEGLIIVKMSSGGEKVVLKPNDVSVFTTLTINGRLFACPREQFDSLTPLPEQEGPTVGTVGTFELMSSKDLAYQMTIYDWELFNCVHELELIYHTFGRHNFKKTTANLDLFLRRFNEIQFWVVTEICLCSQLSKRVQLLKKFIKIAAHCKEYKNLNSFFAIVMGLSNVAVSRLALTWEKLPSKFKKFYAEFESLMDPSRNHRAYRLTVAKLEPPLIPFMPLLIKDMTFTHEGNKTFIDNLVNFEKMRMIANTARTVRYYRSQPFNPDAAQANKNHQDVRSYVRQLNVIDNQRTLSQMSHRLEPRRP
# MEASUREMENT PROTOCOL: Confirmatory qHTS for antagonist of cAMP-regulated guanine nucleotide exchange factor 4 (EPAC2) (AID 1645885); also: nearly all actives have a fitted effect of over 25% in size
# MEASUREMENT SETUP: EPAC2 Rap1B-BODIPY-GDP exchange fluorescence, biochemical; series mostly up to 12.7 µM
Results filed as inconclusive are left out. The source made the active and inactive calls. Calls follow the shape of the dose curve; as a rule, active = well fitted inhibition curve with a large enough effect; inconclusive = small, poorly fitted or top-dose-only effect; inactive = no such curve, though single readings can be large or run the other way.
// allowed return values: active, inactive

// known answers, use as guide
> print(dat)
                                   compound  class.name
1    COC(=O)c1c(SC)nc2ccccc2c1OCc1cccc(C)c1    inactive
2  Cc1c(C(=O)NCc2ccc(F)cc2)sc(=O)n1Cc1ccccc1F      active
3  O=C(c1ccc2c(c1)N(Cc1ccccc1)CCS2)N1CCCCC1    inactive
4  N#Cc1c(NC(=O)c2ccc(Br)o2)n(-c2ccccc2)c2nc3ccccc3nc12    inactive
5  Cc1cc(NC(=O)CSc2nc(-c3ccccc3)nc3c2c(=O)n(C)c(=O)n3C)no1    inactive

Query block: // return assay outcome for CN(Cc1ccccc1F)c1nc(-c2cccs2)nc2ccccc12
Result block: inactive

Query block: Per the assay record, what outcome was assigned to O=C(CNC(=O)c1sc2ccccc2c1Cl)Nc1ccccc1F ?
Result block: inactive

Query block: Check the results log: what was the call for Cc1cc(N=Nc2ccccc2C(=O)O)c(C)c(C)c1O ?
Result block: inactive

Query block: Per the assay record, what outcome was assigned to Cc1cc(C)c(-c2c(N)cc(Br)cc2Br)c(N)c1 ?
Result block: inactive

Query block: What is the recorded call for this compound in the test? Cc1ccc2c(c1)-c1c(c(C(=O)N3CCN(c4cc(C)ccc4C)CC3)nn1C)CS2
Result block: active

Query block: Name the outcome recorded for CC(=O)N1CCc2cc(CNC(=O)c3ccccc3Br)ccc21 in the assay.
Result block: inactive

Query block: I would be grateful if you could indicate the recorded call for O=C(N/N=C/C=C\c1ccco1)c1ccccn1 .
Result block: inactive

###

# Test system: DIV17
# MEASUREMENT PROTOCOL: qHTS profiling for inhibitors of Plasmodium falciparum proliferation (AID 504749); also: nearly all actives have a fitted effect of over 60% in size
# MEASUREMENT SETUP: P. falciparum in erythrocytes, SYBR Green DNA, 72 h; series mostly up to 12.8 µM
Inconclusive results are not listed. Calls of active or inactive are those of the source. Calls follow the shape of the dose curve; as a rule, active = well fitted inhibition curve with a large enough effect; inconclusive = small, poorly fitted or top-dose-only effect; inactive = flat fitted curve, though single readings scatter.
Allowed answers: true (1) = active, false (0) = inactive

Solved entries (count: 6):
MOLECULE	ASSAYED SYSTEM	CLASS NAME
CN(C/C=C\c1ccccc1)Cc1cccc2ccccc12	DIV17	false (0)
CC1(C)O[C@H]2C[C@@H]3[C@H]4CCC5=CC(=O)CC[C@@]5(C)[C@]4(F)[C@@H](O)C[C@@]3(C)[C@@]2(C(=O)CCl)O1	DIV17	true (1)
CC(=O)N[C@H](CC(C)C)C(=O)O	DIV17	false (0)
CCC(CCC(C)C1CCC2C3CC=C4CC(O)CC[C@@]4(C)C3CC[C@@]12C)C(C)C (stereo partly specified)	DIV17	false (0)
O=C(NC[C@@H](O)CO)c1c(I)c(C(=O)NC[C@@H](O)CO)c(I)c(N(CCO)C(=O)CO)c1I	DIV17	false (0)
C[C@@H]1O[C@H](O[C@@H]2\C=C/C=C\C=C/C=C\C[C@H](C)OC(=O)/C=C\[C@H]3O[C@@H]3C[C@H](O)C[C@]3(O)C[C@@H](O)[C@@H](C(=O)O)[C@H](C2)O3)[C@@H](O)[C@H](N)[C@@H]1O (stereo in doubt)	DIV17	false (0)

Query block: How did this test come out for CC(C)(C)NC[C@H](O)COc1cccc2c1C[C@@H](O)[C@@H](O)C2 ?
Result block: false (0)

Query block: Hi team, can someone confirm the assay call for NC[C@@H]1O[C@@H](O[C@H]2[C@H](O)[C@H](O[C@@H]3O[C@H](CO)[C@@H](O)[C@H](N)[C@@H]3O)[C@@H](N)C[C@H]2N)[C@H](N)C[C@@H]1O ?
Result block: false (0)

Query block: Per the assay record, what outcome was assigned to C[C@]12C=CC(=O)C=C1CCC1C2C(O)C[C@]2(C)C1CC[C@]2(O)C(=O)CO (stereo partly specified) ?
Result block: false (0)

Query block: Recorded test call requested for C[C@@H]1C[C@H]2[C@@H]3C[C@H](F)C4=CC(=O)C=C[C@@]4(C)[C@]3(F)[C@H](O)C[C@]2(C)[C@@]1(O)C(=O)CO
Result block: false (0)

Query block: Test call for this molecule, please: COC1C=CO[C@@]2(C)Oc3c(C)c(O)c4c(O)c(c5c(nc6cc(C)ccn65)c4c3C2=O)NC(=O)/C(C)=C\C=CC(C)C(O)[C@@H](C)C(O)C(C)[C@@H](OC(C)=O)C1C (stereo partly specified)
Result block: true (1)

###

# ASSAYED SYSTEM: Rap guanine nucleotide exchange factor 3 (Homo sapiens)
# MEASUREMENT PROTOCOL: Counterscreen qHTS for agonist of cAMP-regulated guanine nucleotide exchange factor 3 (EPAC1) (AID 1645889); also: % of control where 0% means no effect; nearly all actives have a fitted effect of over 40% in size
# MEASUREMENT SETUP: EPAC1 Rap1B-BODIPY-GDP exchange, fluorescence; series mostly up to 154 µM
Results filed as inconclusive are left out. Calls of active or inactive are those of the source. The call rests on the fitted dose curve; in most records, active means well fitted activation curve with a large enough effect; inconclusive means small, poorly fitted or top-dose-only effect, or another doubt; inactive means no such curve, though single readings can be large or run the other way.
OBSERVED PROPERTY: activation

Please review the following examples before continuing.
> print(dat)
                                   molecule  observed.property                         result
1  CCOc1cc(/C=N/NC(=O)c2ccc3c(c2)OCCO3)cc(Br)c1O         activation                       inactive
2             O=C(COc1ccccc1Br)NCCC1=CCCCC1         activation  20.5% [at 30.8 µM] (inactive)
3  COc1ccc(S(=O)(=O)CC(=O)c2cc3cc(Br)ccc3oc2=O)cc1         activation  7.34% [at 30.8 µM] (inactive)
4  O=C(Nc1ccc2nc(-c3ccc4nc[nH]c4c3)[nH]c2c1)c1cccs1         activation  15.6% [at 30.8 µM] (inactive)

From here, focus on the item given below.
Given item CC1(C(=O)O)CCC2(C)CCC3(C)C(=CC(=O)C4C5(C)CCC(=O)C(C)(C)C5CCC43C)C2C1 (stereo not given) , the value recorded as its activation is inactive

###

# MEASUREMENT PROTOCOL: qHTS Assay for Lipid Storage Modulators (AID 1519)
# MEASUREMENT SETUP: Drosophila S3 cells, BODIPY lipid droplet/cell ratio, laser cytometry; measured here: cell count channel max response; cells loaded with oleic acid
Results filed as inconclusive are left out.
Measured max response values are reported for all entries that follow.
The answer is to be given in %; state only the numeric part.

Sample records with max response:
> print(dat)
                                   compound  observed.property  result.units  number
1  CS(=O)(=O)Nc1cccc(-c2nc(Nc3ccccc3)c3ccccc3n2)c1       max response             %   -5.28
2  CC(=O)N(C[C@@H](C)C(=O)O)c1c(I)cc(I)c(N)c1I       max response             %    2.03
3  C=C(C)C1Cc2c(ccc(C(=O)O)c2O)O1 (centres undefined)       max response             %      17

Recorded result, Cc1cc(O)c(C=O)c2c1C(=O)Oc1c(C)c(O)c3c(c1O2)C(O)OC3=O (centres undefined) , max response: 7.17

Entry CCCC1CC(C(=O)N[C@H](C(C)O)C2OC(SC)[C@@H](O)C(O)C2O)N(C)C1 (some centres undefined) , max response reported as 19.1

Reported max response of O=c1cc(-c2ccccc2)oc2cccc(O)c12 : 2.34

Entry under test: CCCC(NC(C)C(=O)N1C(C(=O)O)CC2CCCCC21)C(=O)OCC (centres undefined) . Its max response was 4.3

The compound identified as CC(C)=CCc1c(O)cc(C)oc1=O registered its max response at 9.29

For record O=C(O)C(O)C(O)C(O)C(O)C(=O)O (centres undefined) the listed max response is 3.45

GET /value?item= OC1C2COC(O2)[C@H](O)C1O (some centres undefined) &field=max response returns 12.6

For O=c1cc(-c2cccc(O)c2)oc2ccc(O)cc12 the compound record lists max response as 3.49

Item: CN(C/C=C\c1ccccc1)Cc1cccc2ccccc12 | max response: -24.2

Entry C[C@@H]1O[C@@H](O[C@H]2[C@H](Oc3cc(O)c4c(c3)O[C@H](c3ccc(O)cc3)CC4=O)O[C@H](CO)[C@@H](O)[C@@H]2O)[C@H](O)[C@H](O)[C@H]1O ; max response = -6.96
